Data provenance: patent US6093730A

List of IC50 values.
# study-target: prolyl-4-hydroxylase (Gallus gallus)
# Sequence (P16924 whole entry, the tested form may be a part): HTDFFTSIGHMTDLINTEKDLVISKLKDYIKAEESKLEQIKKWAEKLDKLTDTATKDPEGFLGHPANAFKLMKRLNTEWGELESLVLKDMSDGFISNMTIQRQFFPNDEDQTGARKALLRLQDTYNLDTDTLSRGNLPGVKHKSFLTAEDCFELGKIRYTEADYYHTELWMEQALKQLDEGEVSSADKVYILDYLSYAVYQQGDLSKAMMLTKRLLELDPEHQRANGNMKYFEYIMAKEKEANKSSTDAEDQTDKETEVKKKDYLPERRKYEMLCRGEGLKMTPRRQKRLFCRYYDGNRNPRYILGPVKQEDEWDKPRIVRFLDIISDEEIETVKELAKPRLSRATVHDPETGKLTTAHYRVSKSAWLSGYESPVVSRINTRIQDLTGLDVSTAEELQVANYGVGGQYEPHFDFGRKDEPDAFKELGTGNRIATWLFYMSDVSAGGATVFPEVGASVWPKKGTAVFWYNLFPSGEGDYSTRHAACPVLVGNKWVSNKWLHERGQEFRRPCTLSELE
# Sequence (P09102 23-515 partner): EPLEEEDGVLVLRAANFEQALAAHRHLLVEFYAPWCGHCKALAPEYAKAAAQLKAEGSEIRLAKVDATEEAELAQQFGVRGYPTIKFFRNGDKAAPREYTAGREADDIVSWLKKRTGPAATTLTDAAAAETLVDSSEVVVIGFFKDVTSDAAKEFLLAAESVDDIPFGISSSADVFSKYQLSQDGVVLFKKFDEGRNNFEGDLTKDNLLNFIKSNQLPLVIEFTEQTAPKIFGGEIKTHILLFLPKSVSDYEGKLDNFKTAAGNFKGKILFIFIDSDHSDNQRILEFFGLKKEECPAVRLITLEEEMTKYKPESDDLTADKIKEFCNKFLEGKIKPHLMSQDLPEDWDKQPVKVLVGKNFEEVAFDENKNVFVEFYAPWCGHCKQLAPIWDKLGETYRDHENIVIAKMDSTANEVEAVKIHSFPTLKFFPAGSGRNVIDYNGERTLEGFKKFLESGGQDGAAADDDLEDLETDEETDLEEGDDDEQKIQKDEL
# protocol-text: Combined liver perfusion/enzyme assay (prolyl-4-hydroxylase inhibition after rat liver perfusion)
# Format: biochemical, chicken
# Design: The enzyme is purified from 14 day-old chicken embryos; from tissue; host or cells: 14-day-old chicken embryos
# measurement-context: after 120 min rat liver perfusion; 100 or 50 μg/ml added at t=0 and 60 min
# Procedure: In order to investigate the inhibitory action of such active proinhibitors, the compounds were employed in perfusion experiments on isolated rat liver. The inhibitory action was then measured in a prolyl-4-hydroxylase assay. […] The inhibitory activity of the metabolites which are formed in the liver during the two-hour perfusion was determined in an in vitro prolyl-4-hydroxylase assay. […]
Enter your answer as a number in µM; do not include the unit.

query: # input molecule: `CC(C)Oc1ccc2c(O)c(C(=O)NCCO)nc(Cl)c2c1` ; wanted: its IC50
result: 10.5

query: Would you mind doing `COc1ccc2c(O)c(C(=O)NCCO)nc(Cl)c2c1` as well?
result: 7.5

query: Would you mind doing `COc1ccc2c(Cl)nc(C(=O)NCCO)c(O)c2c1` as well?
result: 6.4

query: Would you mind doing `CCCCOc1ccc2c(O)c(C(=O)NCCO)nc(Cl)c2c1` as well?
result: 21.7

query: Would you mind doing `CC(C)Oc1ccc2c(Cl)nc(C(=O)NCCO)c(O)c2c1` as well?
result: 16.6
